target: Man(a1-2)Man(a1-2)Man(a1-3)Man; experiment: glycan array binding signal (z-score within array); higher = stronger binding; conditions: glycan notation: IUPAC condensed, linker removed
Many of the other results were omitted from the sample, so the strongest signals are more common in it than they were.
measured-quantity: glycan array binding signal (z-score)
Just the number, please, no unit attached.

Data point: Intelectin 1 (Homo sapiens), Q8WWA0 (protein) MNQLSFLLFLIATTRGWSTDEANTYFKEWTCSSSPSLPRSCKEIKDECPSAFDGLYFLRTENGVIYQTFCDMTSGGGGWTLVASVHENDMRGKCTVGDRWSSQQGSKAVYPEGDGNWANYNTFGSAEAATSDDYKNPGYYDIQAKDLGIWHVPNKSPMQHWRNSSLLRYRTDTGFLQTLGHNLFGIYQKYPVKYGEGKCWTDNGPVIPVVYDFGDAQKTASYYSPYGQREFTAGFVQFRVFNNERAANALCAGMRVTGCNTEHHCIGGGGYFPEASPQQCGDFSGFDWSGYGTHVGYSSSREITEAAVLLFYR ; glycan array binding signal (z-score) = 1.53

This collection of values is drawn from the supplement of paper PMC8728848.
